Molecular target: LYPLA2 (Mus musculus, UniProt Q9WTL7)
Construct: a complex proteome endogenously expressing LYPLA1/2 was incubated with test compound; from tissue; host or cells: mouse brain, membrane fraction
Sequence (Q9WTL7 whole entry): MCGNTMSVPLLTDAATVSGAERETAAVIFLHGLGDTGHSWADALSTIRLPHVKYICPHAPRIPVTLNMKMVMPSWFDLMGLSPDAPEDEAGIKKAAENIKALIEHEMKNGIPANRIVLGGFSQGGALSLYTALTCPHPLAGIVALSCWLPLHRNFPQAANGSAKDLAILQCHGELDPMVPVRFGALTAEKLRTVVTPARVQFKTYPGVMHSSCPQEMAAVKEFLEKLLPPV
Experiment: Gel-based competitive ABPP in vitro, mouse brain membrane proteome
Assay type: biochemical
Conditions: 1 μM compound, 30 min, one replicate; read-out: LYPLA2 % INH 1 μM
Lab note: anything with inhibition at 1 µM at or over 20% counts as Satisfied; the rest go in Not satisfied.

>>> df
                                   compound                      system_under_test  assigned_class
0  CC(C)(C)OC(=O)N1CCN2C(=O)N(OC(=O)N3CCCCC3)C(=O)C2C1 (stereo not shown)  LYPLA2 (Mus musculus, UniProt Q9WTL7)   Not satisfied
1  COC(=O)C1CCN(C(=O)ON2C(=O)C3CN(C(=O)OC(C)(C)C)CCN3C2=O)CC1 (stereo not shown)  LYPLA2 (Mus musculus, UniProt Q9WTL7)   Not satisfied
2  CC(C)(C)OC(=O)N1CCN2C(=O)N(OC(=O)N3CCC(CCc4ccc(Cl)cc4)CC3)C(=O)C2C1 (stereo not shown)  LYPLA2 (Mus musculus, UniProt Q9WTL7)       Satisfied
3  O=C(ON1C(=O)C2CN(C(=O)N3CCCCC3)CCN2C1=O)N1CCC(CCc2ccc(Cl)cc2)CC1 (stereo not shown)  LYPLA2 (Mus musculus, UniProt Q9WTL7)       Satisfied
4  CC(C)(C)OC(=O)N1CCN2C(=O)N(OC(=O)N3CCN(CCc4ccccc4)CC3)C(=O)C2C1 (stereo not shown)  LYPLA2 (Mus musculus, UniProt Q9WTL7)   Not satisfied
5  O=C(ON1C(=O)C2CN(CCc3ccccc3)CCN2C1=O)N1CCC(CCc2ccc(Cl)cc2)CC1 (stereo not shown)  LYPLA2 (Mus musculus, UniProt Q9WTL7)       Satisfied

For the next question, use this compound.
-- ask Hi team, for CN(C)c1ccc(C(=O)N2CCN3C(=O)N(OC(=O)N4CCC(CCc5ccc(Cl)cc5)CC4)C(=O)C3C2)cc1 (stereo not shown) , is the recorded inhibition at 1 µM at or above 20%?
-- reply Satisfied

---

Biological target: LYPLA2 (Mus musculus, UniProt Q9WTL7)
Construct: a complex proteome endogenously expressing LYPLA1/2 was incubated with test compound; from tissue; host or cells: mouse brain, membrane fraction
Experiment: Gel-based competitive ABPP in vitro, mouse brain membrane proteome
Type: biochemical
Conditions: 10 μM, mouse brain (mem) proteome
parameter: LYPLA2 in vitro enzyme activity, % @ 10 μM

Examples from the recorded data:
                                   molecule                      system_under_test  measured_result
0  O=C(ON1C(=O)[C@@H]2CN(C(=O)N3CCOCC3)CCN2C1=O)N1CCN(CCc2ccc(Cl)cc2)CC1  LYPLA2 (Mus musculus, UniProt Q9WTL7)           100% @
1  C#CCOc1ccc(N2CCN(C(=O)ON3C(=O)[C@H]4CN(CC5CCN(Cc6ccccc6)CC5)CCN4C3=O)CC2)cc1  LYPLA2 (Mus musculus, UniProt Q9WTL7)             0% @
2  C#CCOc1ccc(N2CCN(C(=O)ON3C(=O)[C@@H]4CN(CC5CCN(Cc6ccccc6)CC5)CCN4C3=O)CC2)cc1  LYPLA2 (Mus musculus, UniProt Q9WTL7)            50% @
3  O=C(ON1C(=O)[C@@H]2CN(Cc3ccc(Br)cc3)CCN2C1=O)N1CCC(CCc2ccc(Cl)cc2)CC1  LYPLA2 (Mus musculus, UniProt Q9WTL7)            50% @
4  COc1ccc(N2CCN(C(=O)ON3C(=O)C4CN(CC5CCN(Cc6ccccc6)CC5)CCN4C3=O)CC2)cc1 (stereo not drawn)  LYPLA2 (Mus musculus, UniProt Q9WTL7)             0% @
5  C#CCOc1ccc(N2CCN(C(=O)ON3C(=O)[C@H]4CN(Cc5ccc(Oc6ccccc6)cc5)CCN4C3=O)CC2)cc1  LYPLA2 (Mus musculus, UniProt Q9WTL7)             0% @
6  COc1ccc(N2CCN(C(=O)ON3C(=O)[C@@H]4CN(CC5CCN(Cc6ccccc6)CC5)CCN4C3=O)CC2)cc1  LYPLA2 (Mus musculus, UniProt Q9WTL7)           100% @
7  COc1ccc(N2CCN(C(=O)ON3C(=O)[C@H]4CN(CC5CCN(Cc6ccccc6)CC5)CCN4C3=O)CC2)cc1  LYPLA2 (Mus musculus, UniProt Q9WTL7)             0% @

The record that follows has no LYPLA2 in vitro enzyme activity, % @ 10 μM shown yet.
-- ask Answer with reported LYPLA2 in vitro enzyme activity, % @ 10 μM of `C#CCOc1ccc(N2CCN(C(=O)ON3C(=O)[C@@H]4CN(Cc5ccc(Oc6ccccc6)cc5)CCN4C3=O)CC2)cc1`
-- reply 0% @

---

Target: LYPLA1 (Mus musculus, UniProt P97823)
Construct: a complex proteome endogenously expressing LYPLA1/2 was incubated with test compound; from tissue; host or cells: mouse brain, membrane fraction
Sequence (P97823 whole entry): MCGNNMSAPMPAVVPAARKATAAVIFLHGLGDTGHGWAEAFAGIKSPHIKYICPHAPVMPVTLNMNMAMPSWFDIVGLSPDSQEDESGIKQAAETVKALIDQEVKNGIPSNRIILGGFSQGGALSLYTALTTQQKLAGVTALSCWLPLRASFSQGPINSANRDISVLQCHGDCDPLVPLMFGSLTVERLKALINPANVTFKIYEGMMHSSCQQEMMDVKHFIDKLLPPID
Experiment: Gel-based competitive ABPP in vitro, mouse brain membrane proteome
Type: biochemical
Conditions: 20 μM, mouse brain (mem) proteome
parameter: LYPLA1 in vitro enzyme activity, % @ 20 μM (% @)
Field: numeric (% @). Do not append units.

Solved entries:
>>> print(df.to_string())
                                   molecule  unit_of_measure  measured_result
0  COC(=O)C1CCN(C(=O)ON2C(=O)C3CN(Cc4ccc(Oc5ccccc5)cc4)CCN3C2=O)CC1 (stereo not shown) [Compound 31]              % @                0
1  O=C(ON1C(=O)C2CN(Cc3ccc(Oc4ccccc4)cc3)CCN2C1=O)N1CCC(c2ccccc2)CC1 (stereo not shown) [Compound 38]              % @                0
2  COc1ccc(N2CCN(C(=O)ON3C(=O)C4CN(C(=O)OC(C)(C)C)CCN4C3=O)CC2)cc1 (stereo not shown) [Compound 21]              % @                0

-- ask Read off the recorded LYPLA1 in vitro enzyme activity, % @ 20 μM for COc1ccc(N2CCN(C(=O)ON3C(=O)C4CN(C)CCN4C3=O)CC2)cc1 (stereo not shown) [Compound 23]
-- reply 0

---

// PLA2G7 in vitro enzyme activity, % @ 10 μM lookup, one value per entry
Target: PLA2G7 (Mus musculus)
Construct: from tissue; host or cells: mouse brain, membrane fraction
Sequence (Q60963 22-440): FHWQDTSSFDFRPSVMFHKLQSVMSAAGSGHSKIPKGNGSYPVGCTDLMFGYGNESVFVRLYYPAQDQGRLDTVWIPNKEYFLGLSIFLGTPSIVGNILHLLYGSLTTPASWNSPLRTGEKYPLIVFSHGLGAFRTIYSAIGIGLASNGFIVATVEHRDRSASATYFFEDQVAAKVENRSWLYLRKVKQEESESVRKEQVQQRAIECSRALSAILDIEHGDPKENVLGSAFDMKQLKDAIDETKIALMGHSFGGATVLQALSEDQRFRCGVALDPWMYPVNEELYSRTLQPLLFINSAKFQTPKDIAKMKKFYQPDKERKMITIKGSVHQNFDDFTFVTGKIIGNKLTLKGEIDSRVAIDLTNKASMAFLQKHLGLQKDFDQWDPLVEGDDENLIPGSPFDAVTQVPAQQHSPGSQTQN
Assay: Gel-based competitive ABPP in vitro, mouse brain membrane proteome
Type: biochemical
Conditions: 10 μM, mouse brain (mem) proteome
Supply the numeric figure in % @, leaving out any unit text.

Some compounds with recorded PLA2G7 in vitro enzyme activity, % @ 10 μM:
                                   compound  unit_of_measure  measured_result
0  C#Cc1ccc(CCC2CCN(C(=O)ON3C(=O)[C@@H]4CN(C(=O)N5CCOCC5)CCN4C3=O)CC2)cc1              % @               75
1  O=C(ON1C(=O)[C@H]2CN(C(=O)N3CCOCC3)CCN2C1=O)N1CCC(CCc2ccc(Cl)cc2)CC1              % @              100

-- ask Output PLA2G7 in vitro enzyme activity, % @ 10 μM of `O=C(ON1C(=O)[C@@H]2CN(C(=O)N3CCOCC3)CCN2C1=O)N1CCN(CCc2ccc(Cl)cc2)CC1`
-- reply 0

---

Molecular target: LYPLA1 (Mus musculus)
Construct: a complex proteome endogenously expressing LYPLA1/2 was incubated with test compound; from tissue; host or cells: mouse brain, membrane fraction
Assay: Gel-based competitive ABPP in vitro, mouse brain membrane proteome
Format: biochemical
Settings: 10 μM compound, 30 min, one replicate; read-out: LYPLA1 % INH 10 μM
inhibition at 10 µM values by entry
Please give a number only; it is taken to be in %.

Here is how some molecules turned out for inhibition at 10 µM.
>>> df
                                   molecule  unit_of_measure  measured_result
0  Cc1ccc(C(=O)N2CCN3C(=O)N(OC(=O)N4CCC(CCc5ccc(Cl)cc5)CC4)C(=O)C3C2)cc1 (stereo not shown)                %              100
1  CC(C)(C)OC(=O)N1CCN2C(=O)N(OC(=O)N3CCOCC3Cc3ccccc3)C(=O)C2C1 (stereo not shown)                %                0
2  CCN(C(=O)C1CCN(C(=O)ON2C(=O)C3CN(C(=O)OC(C)(C)C)CCN3C2=O)CC1)c1ccccc1 (stereo not shown)                %              100

Lab note: next molecule to report on.
-- ask For the molecule O=C(ON1C(=O)C2CN(C(=O)N3CCCC3)CCN2C1=O)N1CCC(CCc2ccc(Cl)cc2)CC1 (stereo not shown) , give its measured inhibition at 10 µM value.
-- reply 100
